B1: Haloalkane dehalogenase, D4Z2G1 (parent)
chain: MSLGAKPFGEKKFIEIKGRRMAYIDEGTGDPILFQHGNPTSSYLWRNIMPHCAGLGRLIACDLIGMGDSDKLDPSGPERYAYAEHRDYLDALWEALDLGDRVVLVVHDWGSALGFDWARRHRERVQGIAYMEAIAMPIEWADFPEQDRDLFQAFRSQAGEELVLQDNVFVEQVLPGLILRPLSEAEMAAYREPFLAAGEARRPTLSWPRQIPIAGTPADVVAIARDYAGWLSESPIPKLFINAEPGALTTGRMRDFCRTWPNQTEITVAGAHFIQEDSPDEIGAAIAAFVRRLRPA

Variants of: B1
Conditions: Sphingobium indicum (strain DSM 16413 / CCM 7287 / MTCC 6362 / UT26 / NBRC 101211 / UT26S); pH 7.5; Thermal; fluorescence; Na-Hepes 50 mM; reversible: no; structure 1MJ5; whole UniProt chain shown
Could you label it YES if measured Tm is 60 °C or higher, and NO otherwise?

## Task Answer whether Tm of `D30E` is greater than or equal to 60 °C.
## Result NO

## Task Answer whether Tm of `V105I` is greater than or equal to 60 °C.
## Result NO

## Task Answer whether Tm of `G176A` is greater than or equal to 60 °C.
## Result NO

## Task Answer whether Tm of `A271V` is greater than or equal to 60 °C.
## Result YES

## Task Answer whether Tm of `R225L` is greater than or equal to 60 °C.
## Result NO

## Task Answer whether Tm of `D219Q` is greater than or equal to 60 °C.
## Result NO
